Data origin, for the record: patent US20240217979A1

- Assayed Target: rat GluN1/GluN2B (Rattus norvegicus, UniProt P35439+Q00960)
- Construct: expressed in transfected cells; host or cells: Xenopus laevis oocytes (cRNA injection, GluN1/GluN2 ratio 1:2)
- Sequence (Q00960 27-1482, other chains not shown): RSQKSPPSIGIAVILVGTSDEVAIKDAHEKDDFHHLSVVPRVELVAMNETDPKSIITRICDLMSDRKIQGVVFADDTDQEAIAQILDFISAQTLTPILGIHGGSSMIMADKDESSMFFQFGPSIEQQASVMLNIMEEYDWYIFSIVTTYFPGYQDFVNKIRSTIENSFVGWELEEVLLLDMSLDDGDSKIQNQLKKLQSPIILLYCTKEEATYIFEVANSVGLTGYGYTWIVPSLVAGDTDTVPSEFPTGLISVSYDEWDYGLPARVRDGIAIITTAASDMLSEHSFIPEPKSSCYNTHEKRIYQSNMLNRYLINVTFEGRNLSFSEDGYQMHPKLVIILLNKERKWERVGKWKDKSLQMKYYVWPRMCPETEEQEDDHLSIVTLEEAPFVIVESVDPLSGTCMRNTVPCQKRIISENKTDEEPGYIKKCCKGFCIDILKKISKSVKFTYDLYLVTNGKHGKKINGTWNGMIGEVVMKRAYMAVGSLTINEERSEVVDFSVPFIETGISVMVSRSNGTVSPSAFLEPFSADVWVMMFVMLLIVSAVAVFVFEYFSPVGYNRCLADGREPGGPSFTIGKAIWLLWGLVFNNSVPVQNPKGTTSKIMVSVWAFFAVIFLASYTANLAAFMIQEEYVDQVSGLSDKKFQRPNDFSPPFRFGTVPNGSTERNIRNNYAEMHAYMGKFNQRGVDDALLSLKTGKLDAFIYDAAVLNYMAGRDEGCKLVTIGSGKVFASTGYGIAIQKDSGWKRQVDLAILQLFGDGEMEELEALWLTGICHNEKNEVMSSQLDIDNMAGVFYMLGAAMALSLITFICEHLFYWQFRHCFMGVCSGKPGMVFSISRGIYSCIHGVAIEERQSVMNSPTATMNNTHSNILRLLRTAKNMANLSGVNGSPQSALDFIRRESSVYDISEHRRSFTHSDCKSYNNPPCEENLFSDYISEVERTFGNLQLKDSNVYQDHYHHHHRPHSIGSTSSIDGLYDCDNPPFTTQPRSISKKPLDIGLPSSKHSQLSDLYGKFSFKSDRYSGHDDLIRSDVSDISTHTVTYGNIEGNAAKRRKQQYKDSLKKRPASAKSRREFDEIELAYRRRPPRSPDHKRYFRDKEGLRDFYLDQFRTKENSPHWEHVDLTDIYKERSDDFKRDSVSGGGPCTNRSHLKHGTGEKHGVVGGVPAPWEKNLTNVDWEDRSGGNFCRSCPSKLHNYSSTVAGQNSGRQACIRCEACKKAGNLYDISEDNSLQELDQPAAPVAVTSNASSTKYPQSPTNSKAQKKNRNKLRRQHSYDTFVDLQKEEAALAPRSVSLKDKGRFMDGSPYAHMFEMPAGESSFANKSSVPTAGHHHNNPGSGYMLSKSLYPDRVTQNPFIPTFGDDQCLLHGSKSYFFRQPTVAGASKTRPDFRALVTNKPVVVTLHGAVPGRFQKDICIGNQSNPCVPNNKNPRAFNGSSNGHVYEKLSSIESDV
- Run Description: Two-electrode voltage-clamp recording in Xenopus laevis oocytes expressing recombinant rat GluN1/GluN2B
- Format: cell-based
- Stated Conditions: 30 μM test compound; current ratio, oocytes; read-out: I30 μM/Icontrol (mean ± SEM, %) GluN2B
Quantity Kind: remaining activity at 30 µM (%)

Reference set, count: 5
[[record]]
molecule = "Cc1cc(-c2ccc(Cl)cc2)c(C2=NN(C(=O)C(F)(F)CC(=O)O)C(c3ccc(Cl)cc3)C2)c(=O)[nH]1 (stereo not drawn)"
measured_number = 55

[[record]]
molecule = "O=C(O)CC(F)(F)C(=O)N1N=C(c2cnccc2-c2ccc(Cl)cc2)CC1c1ccc(Cl)cc1 (stereo not drawn)"
measured_number = 79

[[record]]
molecule = "Cc1[nH]c(=O)c(C2=NN(C(=O)C(F)(F)CC(=O)O)C(c3ccc(Cl)cc3)C2)c(-c2ccc(Cl)cc2)c1C (stereo not drawn)"
measured_number = 58

[[record]]
molecule = "Cc1cc(-c2ccc(Cl)cc2)c(C2=NN(C(=O)C(F)(F)CC(=O)O)C(c3ccc(Cl)cc3)C2)cn1 (stereo not drawn)"
measured_number = 100

[[record]]
molecule = "O=C(CCc1nnn[nH]1)N1N=C(c2c(-c3ccc(Cl)cc3)c3ccccc3[nH]c2=O)CC1c1ccc(Cl)cc1 (stereo not drawn)"
measured_number = 48


P = O=C(O)CC(F)(F)C(=O)N1N=C(c2cnccc2-c2ccccc2)CC1c1ccc(Cl)cc1 (stereo not drawn)
Q = O=C(O)CC(F)(F)C(=O)N1N=C(c2c(-c3ccc(Br)cc3)c3ccsc3[nH]c2=O)CC1c1ccc(Cl)cc1 (stereo not drawn)
From the items above, decide which of P and Q has the lower remaining activity at 30 µM reading. When you have decided, please share the label of that item. Q
